These entries and their values trace back to PubChem BioAssay.

- target: Neurogenic locus notch homolog protein 3 (Homo sapiens)
- assay-explanation: small molecules binding NOTCH3 protein – biochemical, 635/667 nm fluorescence, primary screen (AID 1096)
- details: small-molecule microarray, 635 nm fluorescence, higher = more signal
# cutoff 1 applies to composite z-score; >= gives True, < gives False

1) CN(C)CCCC[C@@H]1NC(=O)[C@H]2C[C@@H](C(=O)NCCCCCN)[C@@H](c3cccc(OCCO)c3)N2C1=O ... False

Confirm if composite z-score reported for the molecule CN1CCC(CCCO)=CC1c1cccs1 (configuration not stated) is 1 or above. False

###

- Test system: Sonic hedgehog protein (Shh)
- assay-explanation: Sonic hedgehog microarray binding compounds – biochemical, small-molecule microarray, 635/667 nm fluorescence, primary screen (AID 1151);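 further: Shh protein binding to compounds spotted on small-molecule microarray slides; score combines spot fluorescence intensity with signal-to-noise across triplicate slides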
- details: 635 nm fluorescence, higher = more signal
# cutoff -0.08 applies to composite z-score; >= gives Yes, < gives No

Check out these entries, answers already filled in.
1. CN(C)CCCC[C@@H]1NC(=O)[C@H]2C[C@@H](C(=O)NCCCCCN)[C@@H](c3cccc(OCCO)c3)N2C1=O ... Yes
2. O=C1C2C=CC(C(O)C=Cc3ccc([N+](=O)[O-])cc3)N(Nc3ccccc3F)C2C(=O)N1c1ccccc1 (stereo not drawn) ... Yes
3. COC(=O)[C@@]1(CCC(=O)OC(C)(C)C)N=C(c2ccc(OCCCO)cc2)O[C@H]1c1ccccc1 ... Yes
4. O=C1C2C=CC(C(O)c3ccc(F)cc3)N(Nc3ccc([N+](=O)[O-])cc3)C2C(=O)N1c1ccccc1 (stereo not drawn) ... No
5. [N-]=[N+]=Nc1ccccc1C[C@]1(C(=O)N2CCCCC2)COC(c2ccc(OCCCO)cc2)=N1 ... No
6. CC(CO)N1C(=O)[C@@H]2C3C(=O)OCCC/C=C\[C@H]3OC23C=CCN(CCN2CCOCC2)C(=O)[C@@H]13 (stereo partly drawn) ... Yes

Consider the record given below.
Confirm if composite z-score reported for the compound C=CCC(OC(C)=O)[C@@H]1[C@@H](N(Cc2ccc(-c3ccccc3)cc2)C(=O)Cc2ccc(F)cc2)c2cc(OCCCO)ccc2N1C(=O)c1ccc2ccccc2c1 (stereo partly drawn) is -0.08 or above. Yes

###

- assay-explanation: S6 kinase pathway phospho-S6 level changes – cell-based, A549, cytoblot, luminescence, serum-stimulated, primary screen (AID 1158);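 further: serum-stimulated A549 lung adenocarcinoma cells; signal is phosphorylated S6 detected by cytoblot immunostaining with HRP secondary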
- details: 5 h, higher = more signal
# cutoff -0.4 applies to z-score; >= gives yes (1), < gives no (0)

Check out these entries, answers already filled in.
1) CCC(CC)C(O)C1C=CC2C(=O)N(c3ccccc3)C(=O)C2N1Nc1ccccc1 (stereo not drawn) ... no (0)
2) C=CC[C@]1(C(=O)NCc2ccccc2)N=C(c2ccc(OCCCO)cc2)O[C@H]1c1ccccc1CN=[N+]=[N-] ... yes (1)
3) CCCNC(=O)[C@@]1(Sc2ccc(C)cc2)CC(=O)N(Cc2ccccc2C(F)(F)F)[C@@H]1c1ccc(CO)cc1I ... yes (1)
4) C=CC[C@]1(C(N)=O)COC(c2ccc(OCCCO)cc2)=N1 ... yes (1)
5) COc1ccc(C(O)C2C=CC3C(=O)N(C)C(=O)C3N2N(c2ccccc2)c2ccccc2)c2ccccc12 (stereo not drawn) ... no (0)
6) C=CCNC(=O)[C@H]1[C@@H]2C(=O)O[C@@H](c3ccccc3)[C@@H](c3ccccc3)N2[C@@H](c2ccc(O)cc2)[C@]12C(=O)Nc1ccc(C#CCCO)cc12 ... yes (1)

Confirm if z-score reported for the compound COc1ccc(NC(=O)O[C@H]2[C@H](OC(=O)c3cc4ccccc4[nH]3)[C@@H](OC(=O)c3cc4ccccc4[nH]3)[C@@H](OC)O[C@@H]2CO)cc1 is -0.4 or above. yes (1)

Confirm if z-score reported for the compound CC(C)[C@@H](C(=O)O)n1cc(C2(O)CCCCC2)nn1 is -0.4 or above. yes (1)
